- ASSAYED TARGET: Tyrosyl-tRNA synthetase, putative (Trypanosoma cruzi (strain CL Brener))
- Sequence (whole entry): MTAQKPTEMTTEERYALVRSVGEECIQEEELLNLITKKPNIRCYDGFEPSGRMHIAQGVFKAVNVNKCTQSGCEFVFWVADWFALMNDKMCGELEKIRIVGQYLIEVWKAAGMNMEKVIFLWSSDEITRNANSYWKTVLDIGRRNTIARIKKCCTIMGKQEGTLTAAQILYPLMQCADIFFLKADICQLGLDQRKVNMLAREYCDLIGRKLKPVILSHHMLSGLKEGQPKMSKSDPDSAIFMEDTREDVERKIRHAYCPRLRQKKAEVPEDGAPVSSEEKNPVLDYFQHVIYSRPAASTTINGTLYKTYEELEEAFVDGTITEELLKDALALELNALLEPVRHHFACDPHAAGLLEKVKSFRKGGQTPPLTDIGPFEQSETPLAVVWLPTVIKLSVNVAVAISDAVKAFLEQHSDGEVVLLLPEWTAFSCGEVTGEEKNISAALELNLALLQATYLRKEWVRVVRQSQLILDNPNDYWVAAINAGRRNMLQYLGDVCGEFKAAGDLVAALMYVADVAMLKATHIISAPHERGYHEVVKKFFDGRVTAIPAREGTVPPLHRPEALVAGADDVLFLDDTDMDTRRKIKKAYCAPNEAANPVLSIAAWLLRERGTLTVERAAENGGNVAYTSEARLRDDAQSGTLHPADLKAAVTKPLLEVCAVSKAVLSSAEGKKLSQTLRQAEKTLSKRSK
- ASSAY INFO: Trypanosoma cruzi tyrosyl tRNA synthetase (TcYRS) _High Tyrosine SOP
- Type: functional
- Set-up: scale not given: in the data most compounds retested in dose-response had high values
- CONDITION SUMMARY: 30 µM
ASSAY READOUT: Percent Effect (%)
Answers are plain numbers, in %.

State its Percent Effect for this molecule: `O=C(Cc1c(F)cccc1F)N1CCN(CC(=O)N2CCCC2)CC1`
4.83

State its Percent Effect for this molecule: Cn1ccnc1CN1CCC2(CC(=O)N(c3cncnc3)C2)C1 (stereo unspecified)
2.16

State its Percent Effect for this molecule: COc1ccc(-c2n[nH]cc2C2SCC(=O)Nc3[nH]ncc32)cc1 (stereo unspecified)
2.13

State its Percent Effect for this molecule: `CN1CCN(Cc2ccoc2)Cc2cccnc21`
5.79

State its Percent Effect for this molecule: `CC(C)=CCN1C(=O)[C@H]2CC[C@@H]1CN(Cc1cccnc1N)C2`
7.37

State its Percent Effect for this molecule: CCc1nnc(C(C)N2CCCN(C(=O)Oc3ccccc3)CC2)o1 (stereo unspecified)
2.13

State its Percent Effect for this molecule: `Cc1cccc(CN2C(=O)C[C@H]3[C@@H]2CCN3CC2CC2)n1`
12.6

State its Percent Effect for this molecule: `Cc1cccc(CN2C[C@H](NS(C)(=O)=O)[C@@H]3OCCC[C@@H]32)n1`
1.04

State its Percent Effect for this molecule: `c1cc(COC[C@@H]2CCC[C@@]23CNCCO3)ccn1`
-3.24

State its Percent Effect for this molecule: COc1ccc(C(=O)C2CCCN(Cc3ccc(C)o3)C2)c(OC)c1 (stereo unspecified)
1.6

Let's switch to this molecule now.
State its Percent Effect for this molecule: CC(Cn1cccn1)NCc1csc(-c2cccs2)n1 (stereo unspecified)
7.39

----------
- ASSAYED TARGET: Aspartate--tRNA(Asp/Asn) ligase (Mycobacterium tuberculosis (strain ATCC 25618 / H37Rv)) (UniProt P9WFW3)
- Sequence (P9WFW3 whole entry): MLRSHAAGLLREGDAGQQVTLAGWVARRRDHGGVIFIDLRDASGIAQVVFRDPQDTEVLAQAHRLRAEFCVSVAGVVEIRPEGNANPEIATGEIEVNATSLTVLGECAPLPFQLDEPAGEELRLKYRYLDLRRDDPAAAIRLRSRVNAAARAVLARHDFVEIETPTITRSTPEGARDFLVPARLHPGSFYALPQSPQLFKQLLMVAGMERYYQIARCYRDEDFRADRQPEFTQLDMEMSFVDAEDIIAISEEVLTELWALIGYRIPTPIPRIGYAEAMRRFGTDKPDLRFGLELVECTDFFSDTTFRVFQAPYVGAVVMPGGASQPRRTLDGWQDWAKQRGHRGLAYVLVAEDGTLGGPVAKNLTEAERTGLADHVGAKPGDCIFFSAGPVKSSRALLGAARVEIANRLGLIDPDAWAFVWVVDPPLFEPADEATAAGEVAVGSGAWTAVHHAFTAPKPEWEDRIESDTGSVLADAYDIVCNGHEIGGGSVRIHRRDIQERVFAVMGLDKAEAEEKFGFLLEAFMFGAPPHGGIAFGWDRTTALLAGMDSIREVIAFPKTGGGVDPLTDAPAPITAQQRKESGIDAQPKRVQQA
- ASSAY INFO: Assay for Asp RNA synthetase-1 from Mycobacterium tuberculosis
- Assay type: functional
- Parameters: scale not given: in the data most compounds retested in dose-response had high values
- CONDITION SUMMARY: 30 µM
Assignment: determine reported Percent Effect for the given molecules.
State the value with its unit after it.

Fill in Percent Effect for each of the 7 molecules listed.
1. O=C(CCNc1ncccn1)N1CCCC(n2ccnc2)C1 (configuration not stated)
2. Cc1cc(F)c(S(=O)(=O)NCCCN2CCC(O)CC2)cc1F
3. CC(C)OCCC(=O)N(C)CCCc1cc(-c2ccccc2)no1
4. CC(=O)N1CCC(C(=O)NCCN2CCC(C)CC2)CC1
5. CC(C)(C)c1cn2nc(N3CCOC(Cn4cncn4)C3)sc2n1 (configuration not stated)
6. COc1ncccc1NC(=O)NC1CCOc2ccccc21 (configuration not stated)
7. CCO[C@@H]1CC[C@H]2[C@H]1OCCN2C(=O)C1CCOCC1

1.03%
11.3%
2.1%
0.167%
-2.01%
-3.76%
-5.84%
